target: IDH1 R132H (Homo sapiens, UniProt O75874, R132H); assay: IDH1 R132H enzymatic assay (NADPH depletion coupled to diaphorase/resazurin); assay type: biochemical; conditions: IDH1 R132H enzymatic inhibition, IC50 class
Sequence (O75874 whole entry R132H): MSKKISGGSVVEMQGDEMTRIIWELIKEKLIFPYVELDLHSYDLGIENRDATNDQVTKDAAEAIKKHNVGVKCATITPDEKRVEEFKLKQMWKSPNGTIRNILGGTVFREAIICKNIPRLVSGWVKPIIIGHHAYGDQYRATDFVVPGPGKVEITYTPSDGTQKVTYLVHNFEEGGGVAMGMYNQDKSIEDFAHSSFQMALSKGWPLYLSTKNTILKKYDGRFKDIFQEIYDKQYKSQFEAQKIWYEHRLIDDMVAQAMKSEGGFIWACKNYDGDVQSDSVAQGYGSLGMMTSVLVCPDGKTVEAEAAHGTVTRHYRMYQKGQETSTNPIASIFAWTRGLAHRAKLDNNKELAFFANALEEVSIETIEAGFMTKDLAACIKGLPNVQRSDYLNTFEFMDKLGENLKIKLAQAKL
pIC50: −log10 of the molar value.
# maps each entry to its pIC50

Sample CCc1cccc(CC)c1-n1c(CC(C)C)c(C(=O)N[C@@H](CO)c2ccccc2)cc(-c2nc(-c3ccc(Cl)cc3)cs2)c1=O — what was its pIC50? 6.00 to 6.52

Reported pIC50, compound CC(=O)c1ccccc1-n1c2c(cc(-c3nc(-c4ccc(Cl)cc4)cs3)c1=O)C(=O)CC(C)(C)C2 : ____ 5.30 to 6.00

Others:
Given the compound CCc1cccc(C(=O)O)c1-n1c2c(cc(-c3nc(-c4ccc(Cl)cc4)cs3)c1=O)C(=O)CC(C)(C)C2 , what is its reported pIC50? 6.00 to 6.52

---

target: IDH1 R132H (Homo sapiens, UniProt O75874, R132H); experiment: IDH1 R132H enzymatic assay (NADPH depletion coupled to diaphorase/resazurin); format: biochemical; details: enzymatic inhibition, IDH1 R132H
Items are presented alongside their recorded IC50.

# annotated cases, reported IC50 shown
What value of IC50 has been recorded for this entry: CCOc1ccc(C)cc1-n1c(C=C(C)C)c(C(=O)N2CCNCC2)cc(-c2nc(-c3ccc(C(F)(F)F)nc3)cs2)c1=O < 300 nM

Give its IC50 value. Item: CCc1cccc(CC)c1-n1c(C=C(C)C)c(C(=O)N2CCNC(C(C)C)C2)cc(-c2nc(-c3ccc(Cl)cc3)cs2)c1=O (stereo not drawn) < 300 nM

Alright, here's another molecule for you.
Using the record for CCOc1ccc(Cl)cc1-n1c(C=C(C)C)c(C(=O)N2CCNCC2)cc(-c2nc(-c3ccc(Cl)cc3)cs2)c1=O , report its IC50. < 300 nM

---

target: IDH1 R132H (Homo sapiens, UniProt O75874, R132H); experiment: IDH1 R132H enzymatic assay (NADPH depletion coupled to diaphorase/resazurin); format: biochemical; settings: IDH1 R132H enzymatic inhibition, IC50 class
Reported Endpoint: IC50

Quick one: IC50 of COc1ccc(OC)c(-n2c3c(cc(-c4cccc(-c5ccc(Cl)cc5)c4)c2=O)C(=O)CC(C)(C)C3)c1 [Compound 111] ? > 20 µM

Please report the recorded IC50 for CCc1cccc(CC)c1-n1c(CCC(F)(F)F)c(C(=O)N2CCNCC2)cc(-c2nc(-c3ccc(Cl)cc3)cs2)c1=O [Compound 373] . 0.3 to 1 µM

GET /values?readout=IC50&item= CCc1cccc(CC)c1-n1c(C)c(C(=O)NC2CCCC2)cc(-c2nc(-c3ccc(Cl)cc3)cs2)c1=O [Compound 7] > 20 µM

Which measured IC50 value corresponds to CCc1cccc(CC)c1-n1c(CC(C)C)c(C(=O)NC2CCNCC2)cc(-c2nc(-c3ccc(Cl)cc3)cs2)c1=O [Compound 263] ? 0.3 to 1 µM

Requested read-out: IC50. Entry: COc1ccc(OC)c(-n2c3c(cc(-c4nc(-c5ccc(Cl)cc5)cs4)c2=O)C=CC(C)(C)C3)c1 [Compound 144] 1 to 5 µM

---
For CCc1cccc(CC)c1-n1c(C)c(C(=O)NCc2ccccc2)cc(-c2nc(-c3ccc(Cl)cc3)cs2)c1=O [Compound 192] , what is its reported IC50? > 20 µM

Which IC50 is listed for CCc1cccc(CC)c1-n1c(O)c(C(=O)CC(C)C)cc(-c2nc(-c3ccc(Cl)cc3)cs2)c1=O [Compound 392] ? 5 to 20 µM

Record request: IC50 value, item CCc1cccc(CC)c1-n1c(CC(C)C)c(C(=O)NC[C@H](NC(C)=O)C(=O)O)cc(-c2nc(-c3ccc(Cl)cc3)cs2)c1=O [Compound 140] 5 to 20 µM

Requested field: IC50. Item: CCc1cccc(OC)c1-n1c(C=C(C)C)c(C(=O)N2CCNCC2)cc(-c2nc(-c3ccc(Cl)cc3)cs2)c1=O [Compound 642] < 0.3 µM

---

Biological target: IDH1 R132C (Homo sapiens, UniProt O75874, R132C)
Sequence (O75874 whole entry R132C): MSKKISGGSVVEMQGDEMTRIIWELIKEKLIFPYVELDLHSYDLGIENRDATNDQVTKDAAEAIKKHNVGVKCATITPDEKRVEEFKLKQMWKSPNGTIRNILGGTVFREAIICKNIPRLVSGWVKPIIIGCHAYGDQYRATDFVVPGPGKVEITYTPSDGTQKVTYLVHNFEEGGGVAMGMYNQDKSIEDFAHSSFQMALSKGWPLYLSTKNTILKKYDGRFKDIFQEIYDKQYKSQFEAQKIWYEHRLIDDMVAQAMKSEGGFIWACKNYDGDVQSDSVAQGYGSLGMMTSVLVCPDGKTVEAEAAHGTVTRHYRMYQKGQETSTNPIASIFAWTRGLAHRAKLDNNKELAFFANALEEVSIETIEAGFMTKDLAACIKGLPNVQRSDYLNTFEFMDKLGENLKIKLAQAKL
Assay: IDH1 R132C enzymatic assay (NADPH depletion coupled to diaphorase/resazurin)
Format: biochemical
Settings: IDH1 R132C enzymatic inhibition, IC50 class
Method: Assays were conducted in a 1536-well black solid-bottom plate with a final assay volume of 9 μL. For IDH1 R132C, 3 μL of enzyme (0.00032 mg/mL IDH1 […], 10% glycerol, 50 mM potassium phosphate pH 6.5, 5 mM MgCl2, 0.03% BSA) were added to the plate, followed by the addition of 23 nL of test compound in DMSO. […]
pIC50: −log10 of the molar value.
Reported Endpoint: pIC50

Consider the compound shown here: CCc1cccc(CC)c1-n1c2c(cc(-c3nc(-c4cnn(C)c4)c(C)s3)c1=O)C(=O)CC(C)(C)C2 What is its recorded pIC50? 5.30 to 6.00

More entries:
// pIC50 lookup, key: CCc1cccc(CC)c1-n1c(COCCOC)c(C(=O)N2CCNCC2)cc(-c2nc(-c3ccc(Cl)cc3)cs2)c1=O 6.00 to 6.52

Quick one: pIC50 of CC1(C)CC(=O)c2cc(-c3nc(-c4ccc(Cl)cc4)cs3)c(=O)n(-c3ccccc3OC3CC3)c2C1 ? 6.00 to 6.52

So what does the record say about pIC50 for CCc1cccc(CC)c1-n1c(C)c(C(=O)NC2CCCNC2)cc(-c2nc(-c3ccc(Cl)cc3)cs2)c1=O (centres unmarked) ? 6.00 to 6.52

Consider the compound shown here: CCc1cccc(CC)c1-n1c(CC(C)C)c(C(=O)N2CCNCC2)cc(-c2nc(-c3ccc(C(F)(F)F)cc3)cs2)c1=O What is its recorded pIC50? > 6.52

// returns reported pIC50 for input COc1cccc(F)c1-n1c2c(cc(-c3nc(-c4ccc(Cl)cc4)cs3)c1=O)C(=O)CC(C)(C)C2 5.30 to 6.00

// pIC50 lookup, key: COc1ccc(OC)c(-n2c(C)ccc(-c3nc(-c4ccc(Cl)cc4)cs3)c2=O)c1 4.70 to 5.30

Form field: reported pIC50 of Cc1c(N)cccc1-n1c2c(cc(-c3nc(-c4ccc(Cl)cc4)cs3)c1=O)C(=O)CC(C)(C)C2 5.30 to 6.00

---

Known pIC50 of a selection of compounds
target: IDH1 R132H (Homo sapiens, UniProt O75874, R132H); assay: IDH1 R132H enzymatic assay (NADPH depletion coupled to diaphorase/resazurin); assay type: biochemical; details: IDH1 R132H enzymatic inhibition, IC50 class
pIC50: −log10 of the molar value.

Name the recorded pIC50 for CCc1cccc(CC)c1-n1c(C)c(C(=O)NCC(C)C)cc(-c2nc(-c3ccc(Cl)cc3)cs2)c1=O . < 4.70

***
Please report the recorded pIC50 for CCc1cccc(CC)c1-n1c(CC(C)C)c(C(=O)N2CCNC(C)(CO)C2)cc(-c2nc(-c3ccc(Cl)cc3)cs2)c1=O (stereo not shown) . 6.00 to 6.52

---

molecular target: IDH1 R132C (Homo sapiens, UniProt O75874, R132C); experiment: IDH1 R132C enzymatic assay (NADPH depletion coupled to diaphorase/resazurin); assay type: biochemical; details: IDH1 R132C enzymatic inhibition, IC50 class
Reported Endpoint: IC50

Reported IC50, molecule CCc1cccc(CC)c1-n1c(C=C(C)C)c(C(=O)N2CCNCC2)cc(-c2nn(-c3ccc(Cl)cc3)cc2C)c1=O : ____ 1000 to 5000 nM

---

biological target: IDH1 R132H (Homo sapiens, UniProt O75874, R132H); assay: IDH1 R132H enzymatic assay (NADPH depletion coupled to diaphorase/resazurin); format: biochemical; details: enzymatic inhibition, IDH1 R132H
pIC50: −log10 of the molar value.
Reported Endpoint: pIC50

Check out these entries, answers already filled in.
Lab note: need pIC50 with IDH1 R132H (Homo sapiens, UniProt O75874, R132H) for entry Cc1cccc(CN2CCN(C)CC2)c1-n1c2c(cc(-c3nc(-c4ccc(Cl)cc4)cs3)c1=O)C(=O)CCC2 , please look it up. 4.70 to 5.30

Request - read-out pIC50 | tested on IDH1 R132H (Homo sapiens, UniProt O75874, R132H) | molecule CC(C)=Cc1c(C(=O)N2CCNCC2)cc(-c2nc(-c3ccc(Cl)cc3)cs2)c(=O)n1-c1cc(Cl)ccc1OC(C)C > 6.52

Item CCc1cccc(C)c1-n1c(C)c(C(=O)N2CCNCC2)cc(-c2nc(-c3ccc(Cl)cc3)cs2)c1=O with IDH1 R132H (Homo sapiens, UniProt O75874, R132H) - pIC50? 6.00 to 6.52

Value wanted: pIC50 (IDH1 R132H (Homo sapiens, UniProt O75874, R132H)) of entry CCOc1ncc(F)cc1-n1c(C=C(C)C)c(C(=O)N2CCNCC2)cc(-c2nc(-c3ccc(Cl)cc3)cs2)c1=O > 6.52

Short answer please: pIC50, IDH1 R132H (Homo sapiens, UniProt O75874, R132H), entry CCc1cccc(CC)c1-n1c(C=C(C)C)c(C(=O)N2CCNC(C(N)=O)C2)cc(-c2nc(-c3ccc(Cl)cc3)cs2)c1=O (centres unmarked) > 6.52

---
Which measured pIC50 belongs to CCc1cccc(CC)c1-n1c(CC(C)C)c(C(=O)N2CCNCC2)cc(-c2nc(-c3ccc(Cl)cc3)c(C(=O)N(C)C)s2)c1=O , tested on IDH1 R132H (Homo sapiens, UniProt O75874, R132H)? 6.00 to 6.52

Field: pIC50 (IDH1 R132H (Homo sapiens, UniProt O75874, R132H)). Entry: C#Cc1ccccc1-n1c(C=C(C)C)c(C(=O)N2CCNCC2)cc(-c2nc(-c3ccc(Cl)cc3)cs2)c1=O > 6.52

Identify the measured pIC50 of CCc1cccc(CC)c1-n1c(CC2CCCCO2)c(C(=O)N2CCNCC2)cc(-c2nc(-c3ccc(Cl)cc3)cs2)c1=O (centres unmarked) for IDH1 R132H (Homo sapiens, UniProt O75874, R132H). 5.30 to 6.00
